target: SHP2-C SH2; test: SH2 binding enrichment of the phosphorylated peptide, bacterial display (enrichment ratio); higher = better substrate or ligand; peptides without Tyr show the background;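 also: peptide library displayed on the E. coli surface as eCPX fusions, selected cells deep-sequenced, score is each peptide's frequency after selection divided by its frequency in the input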

seq: TLNHQYDFTFD [CSNK1A1_Y292_YF]
SH2 binding enrichment: 0.701

seq: FRAPGYREVVI [TNS2_Y673_YF]
SH2 binding enrichment: 1.13

seq: RRIEKYVDQGK [IRAK3_Y61_H57R]
SH2 binding enrichment: 0.333

seq: LARDMDDKEFF [MET_Y1230_Y1230D_YF]
SH2 binding enrichment: 0.968

seq: FTRNFYVRAVL [CYBA_Y88_YF]
SH2 binding enrichment: 0.658

seq: GFRPVYSEDEQ [CHST6_Y362_YF]
SH2 binding enrichment: 0.73

seq: RSRSSYTHSLN [MYCT1_Y116_G119S]
SH2 binding enrichment: 0.348

seq: IKKFKYRIEEH [GJA1_Y137_G138R]
SH2 binding enrichment: 0.77

seq: QADVIYVNTQL [MERTK_Y872]
SH2 binding enrichment: 0.699

seq: PTTKTYFPQFD [HBA1_Y43_H46Q]
SH2 binding enrichment: 1.11

seq: QEIATYRRLRE [KRT17_Y384_L388R]
SH2 binding enrichment: 0.478

seq: LEFGDYHPLKP [VPS35L_Y32]
SH2 binding enrichment: 0.733

seq: TLDTDYQMTKR [ADA_Y308]
SH2 binding enrichment: 0.597

seq: VRRRSYSAGNA [KANK1_Y324_K321R]
SH2 binding enrichment: 0.557

seq: RHFTTYDTNGR [CLCA1_Y665_Y661H]
SH2 binding enrichment: 0.642

seq: AAILGYCRGEA [XPC_Y669]
SH2 binding enrichment: 0.683

seq: PFFASYPPSPD [GDAP2_Y491_T489A_YF]
SH2 binding enrichment: 0.847

seq: WHYTFYNELRV [ACTC1_Y93_H90Y]
SH2 binding enrichment: 0.779

seq: EIRTQYEVMAS [GFAP_Y242_A244V]
SH2 binding enrichment: 0.89

From: the supplement of paper PMC10065799
